system-tested: P2X7 receptor (hP2X7) (Homo sapiens (Human), UniProt Q99572)
Sequence (Q99572 whole entry): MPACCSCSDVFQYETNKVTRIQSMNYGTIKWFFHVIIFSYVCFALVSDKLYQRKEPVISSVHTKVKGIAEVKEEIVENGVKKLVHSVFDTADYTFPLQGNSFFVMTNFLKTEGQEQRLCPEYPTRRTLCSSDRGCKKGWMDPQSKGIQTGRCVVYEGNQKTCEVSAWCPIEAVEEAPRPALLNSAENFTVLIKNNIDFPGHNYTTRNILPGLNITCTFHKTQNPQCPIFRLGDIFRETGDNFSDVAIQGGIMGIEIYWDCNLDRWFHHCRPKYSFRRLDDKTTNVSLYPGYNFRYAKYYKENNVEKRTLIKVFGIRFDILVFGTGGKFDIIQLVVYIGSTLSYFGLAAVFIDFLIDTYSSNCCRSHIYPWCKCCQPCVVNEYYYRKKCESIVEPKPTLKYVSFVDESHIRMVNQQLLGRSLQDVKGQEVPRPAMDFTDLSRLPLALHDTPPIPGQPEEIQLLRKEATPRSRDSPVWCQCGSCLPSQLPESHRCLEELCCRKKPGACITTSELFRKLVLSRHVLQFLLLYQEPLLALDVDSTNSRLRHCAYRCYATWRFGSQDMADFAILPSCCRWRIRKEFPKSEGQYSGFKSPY
run-description: Screen Quest Fluo-8 No Wash Calcium Assay (Bz-ATP-induced Ca2+ influx, FLIPR TETRA)
Assay type: cell-based
run-conditions: HEK-293 cells stably transfected with P2X7 receptor, Fluo-8 calcium, Low Divalent Cation Assay Buffer
property-measured: IC50 (nM)
Report the value in nM with no unit label.

Example results:
Cc1cccc(Cl)c1C(=O)NCC(c1cncs1)N1CCOCC1 (stereo not shown) :: 64
Cc1ncc(C(CNC(=O)c2c(F)cccc2Cl)N2CCC(OCc3ccccc3)CC2)s1 (stereo not shown) :: 576
O=C(NCC(c1cnco1)N1CCC(OCc2ccccc2)CC1)c1c(F)cccc1Cl (stereo not shown) :: 69

Ask: Reported IC50, compound O=C(NCC(c1cnc(C2CCC2)s1)N1CCC(F)(F)CC1)c1c(F)cccc1Cl (stereo not shown) : ____
Reply: 119

Ask: Reported IC50, compound Cc1cccc(C)c1C(=O)NCC(c1cncs1)N1CCOCC1 (stereo not shown) : ____
Reply: 81

Ask: Reported IC50, compound O=C(NCC(c1cnc(C2CC2)s1)N1CCC(F)(F)CC1)c1cc(-c2ncc(F)cn2)ccc1F (stereo not shown) : ____
Reply: 495

Ask: Reported IC50, compound Cc1ncc(C(CNC(=O)c2cc(-c3ncc(F)cn3)ccc2F)N2CCC(F)(F)CC2)s1 (stereo not shown) : ____
Reply: 292

Ask: Reported IC50, compound COc1ccc(-c2ncc(F)cn2)cc1C(=O)NCC(c1scnc1C)N1CCC(F)(F)CC1 (stereo not shown) : ____
Reply: 355

Ask: Reported IC50, compound CC(C)(C)c1ncc(C(CNC(=O)c2cc(-c3ncc(F)cn3)ccc2Cl)N2CCC(F)(F)CC2)s1 (stereo not shown) : ____
Reply: 1060

Ask: Reported IC50, compound Cc1ncsc1C(CNC(=O)c1cc2c(cc1F)NC(=O)CC2)N1CCC(F)(F)CC1 (stereo not shown) : ____
Reply: 6910

Ask: Reported IC50, compound Cc1cccc(C)c1C(=O)NCC(c1cncs1)N1CCC(F)(F)CC1 (stereo not shown) : ____
Reply: 27

Ask: Reported IC50, compound Cc1ncsc1C(CNC(=O)c1c(F)cccc1Cl)N1CCOC(c2ccc(F)cc2F)C1 (stereo not shown) : ____
Reply: 72

Ask: Reported IC50, compound Cc1ncc(C(CNC(=O)c2cc(-c3ncc(F)cn3)ccc2Cl)N2CCC(F)(F)CC2)s1 (single isomer, unassigned; (-)) [Compound 128] : ____
Reply: 141

Ask: Reported IC50, compound O=C(NCC(c1scnc1C(F)(F)F)N1CCC(F)(F)CC1)c1cc(-c2ncc(F)cn2)ccc1Cl (stereo not shown) : ____
Reply: 103

Ask: Reported IC50, compound Cc1ncsc1C(CNC(=O)c1cc(-c2ncc(F)cn2)ccc1Cl)N1CCOCC1 (stereo not shown) : ____
Reply: 106

Ask: Reported IC50, compound O=C(NCC(c1cncs1)N1CCc2ccccc2C1)c1c(F)cccc1Cl (stereo not shown) : ____
Reply: 100

Ask: Reported IC50, compound Cc1cccc(Cl)c1C(=O)NCC(c1cncs1)N1CCc2ccccc2C1 (stereo not shown) : ____
Reply: 104

Ask: Reported IC50, compound Cc1cccc(-c2ccc(Cl)c(C(=O)NCC(c3cnc(C)s3)N3CCC(F)(F)CC3)c2)n1 (stereo not shown) : ____
Reply: 206

Ask: Reported IC50, compound O=C(NCC(c1cnco1)N1CCc2ccccc2C1)c1c(F)cccc1Cl (stereo not shown) : ____
Reply: 541
